From: paper PMC8092209

target: MpPA14 (Marinomonas primoryensis, UniProt A1YIY3)
Sequence (A1YIY3 entry or part of it): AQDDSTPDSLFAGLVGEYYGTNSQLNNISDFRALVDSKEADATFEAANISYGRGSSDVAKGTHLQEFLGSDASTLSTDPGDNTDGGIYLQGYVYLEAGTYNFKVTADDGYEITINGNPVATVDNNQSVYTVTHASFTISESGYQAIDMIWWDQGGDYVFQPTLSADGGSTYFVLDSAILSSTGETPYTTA
method-summary: Dextran-based comparative competition assay (MpPA14)
Format: binding
pKd reference
For clarity, pKd is expressed as the negative log10 of concentration in mol/L.

Solved entries (count: 3):
compound	pKd
O=CC[C@H](O)[C@H](O)CO	1.74
O=C[C@H](O)[C@@H](O)[C@@H](O)[C@H](O)CO	2.39
OC1OC[C@H](O)[C@H](O)[C@H]1O (mixture of isomers)	2.66

Which pKd is reported for this compound? CC(=O)N[C@@H]1[C@@H](O)[C@H](O)[C@@H](CO)O[C@H]1O
2.97

Which pKd is reported for this compound? O[C@H]1[C@H](O)[C@@H](O)[C@H](O)[C@@H](O)[C@H]1O
2.57

Which pKd is reported for this compound? O=C[C@H](O)[C@@H](O)[C@H](O)CO
1.96

Which pKd is reported for this compound? OC[C@H]1OC(O)[C@@H](O)[C@@H](O)[C@@H]1O (stereo partly drawn)
2.77

Which pKd is reported for this compound? C[C@H](O)[C@@H](O)[C@@H](O)[C@H](O)C=O
3.19

Which pKd is reported for this compound? CO[C@@H]([C@H](O)[C@H](O)CO)[C@@H](O)C=O
2.24
